- Test system: HOP-92 NSCLC
- Protocol Description: NCI tumour cell line growth inhibition, 48 h
Reported Endpoint: TGI

Use these answered entries as a reference point.
>  <Compound>
NC1(C(=O)O)CCCC1C(=O)O (stereo unspecified)

>  <Test Value>
> 100 µM

$$$$
>  <Compound>
CC(C)(/C=N\O)NO

>  <Test Value>
> 10 µM

$$$$
>  <Compound>
CNc1ccc(C(=O)CC(O)CCC(C)C2OC(=O)CC(O)CC(=O)CC(O)CC(O)CC(O)CC(O)CC3(O)CC(O)C(C(=O)NCCN(C)C)C(CC(OC4OC(C)C(O)C(NC(=O)CN5CCN(CCO)CC5)C4O)/C=C/C=C/C=C/C=C\C=C/C=C/C=C/C2C)O3)cc1 (stereo unspecified)

>  <Test Value>
> 50 µM

$$$$

Note: attention shifts to another entry.
Exam item: Need TGI, item "CCOC(=O)NC(Nc1ncn(C(NC(=O)OCC)(C(F)(F)F)C(F)(F)F)n1)(C(F)(F)F)C(F)(F)F"
Marked response: > 100 µM
